IC50 data for Somatostatin receptor type 4 (Homo sapiens, UniProt P31391) follow.
Positions of bridges follow the written chain, without caps; N, C: chain ends. Non-standard residues stand in square brackets, D forms with d. Residues, ends and D or L forms follow the SMILES beside them. NMePhe(4-CH2NHiPr) = CN[C@@H](Cc1ccc(CNC(C)C)cc1)C(=O)O

These solved cases illustrate the format of a correct answer.
Query: Give reported IC50 for CC(C)NCc1ccc(C[C@H]2C(=O)N[C@@H]([C@@H](C)O)C(=O)N[C@@H](Cc3ccccc3)C(=O)N[C@@H]([C@@H](C)O)C(=O)N[C@@H](CO)C(=O)N[C@H](C(=O)O)CSSC[C@H](N)C(=O)N[C@@H](CCCCN)C(=O)N[C@@H](Cc3ccccc3)C(=O)N[C@@H](Cc3ccccc3)C(=O)N[C@H](Cc3c[nH]c4ccccc34)C(=O)N2C)cc1 (H-CKFF[dW][NMePhe(4-CH2NHiPr)]TFTSC-OH; disulfide 1-11) (Somatostatin receptor type 4 (Homo sapiens, UniProt P31391))
Reply: 226 nM

Query: Give reported IC50 for CC(C)NCc1ccc(C[C@@H]2NC(=O)[C@@H](Cc3c[nH]c4ccccc34)NC(=O)[C@H](Cc3ccccc3)NC(=O)[C@H](Cc3ccccc3)NC(=O)[C@H](CCCCN)NC(=O)[C@@H](N)CSSC[C@@H](C(=O)N[C@@H](CCCCN)C(=O)N[C@@H](CCCCN)C(=O)O)NC(=O)[C@H](CO)N(C)C(=O)[C@H]([C@@H](C)O)NC(=O)[C@H](Cc3ccccc3)NC(=O)[C@H]([C@@H](C)O)NC2=O)cc1 (Somatostatin receptor type 4 (Homo sapiens, UniProt P31391))
Reply: > 1000 nM

Query: Give reported IC50 for CC(C)NCc1ccc(C[C@@H]2NC(=O)[C@@H](Cc3ccc4ccccc4c3)NC(=O)[C@H](Cc3ccccc3)NC(=O)[C@H](Cc3ccccc3)NC(=O)[C@H](CCCCN)NC(=O)[C@@H](N)CSSC[C@@H](C(=O)O)NC(=O)[C@H](CO)N(C)C(=O)[C@H]([C@@H](C)O)NC(=O)[C@H](Cc3ccccc3)NC(=O)[C@H]([C@@H](C)O)NC2=O)cc1 (Somatostatin receptor type 4 (Homo sapiens, UniProt P31391))
Reply: > 1000 nM

Query: Give reported IC50 for CC(C)NCc1ccc(C[C@@H]2NC(=O)[C@H](N(C)C(=O)c3ccc4ccccc4c3)NC(=O)[C@H](Cc3ccccc3)NC(=O)[C@H](Cc3ccccc3)NC(=O)[C@H](CCCCN)NC(=O)[C@@H](N)CSSC[C@@H](C(=O)O)NC(=O)[C@H](CO)NC(=O)[C@H]([C@@H](C)O)NC(=O)[C@H](Cc3ccc(O)c(I)c3)NC(=O)[C@H]([C@@H](C)O)NC2=O)cc1 (Somatostatin receptor type 4 (Homo sapiens, UniProt P31391))
Reply: 435 nM

Query: Give reported IC50 for CC(C)NCc1ccc(C[C@@H]2NC(=O)[C@@H](Cc3c[nH]c4ccccc34)NC(=O)[C@H](Cc3ccccc3)NC(=O)[C@H](Cc3ccccc3)NC(=O)[C@H](CCCCN)NC(=O)[C@@H](N)CSSC[C@@H](C(=O)O)NC(=O)[C@H](CO)NC(=O)[C@H]([C@@H](C)O)N(C)C(=O)[C@H](Cc3ccccc3)NC(=O)[C@H]([C@@H](C)O)NC2=O)cc1 (Somatostatin receptor type 4 (Homo sapiens, UniProt P31391))
Reply: > 1000 nM

Query: Give reported IC50 for CC(C)NCc1ccc(C[C@@H]2NC(=O)[C@@H](Cc3ccc4ccccc4c3)NC(=O)[C@H](Cc3ccccc3)NC(=O)[C@H](Cc3ccccc3)NC(=O)[C@H](CCCCN)NC(=O)[C@@H](N)CSSC[C@@H](C(=O)O)NC(=O)[C@H](CO)NC(=O)[C@H]([C@@H](C)O)NC(=O)[C@H](Cc3ccccc3)NC(=O)[C@H]([C@@H](C)O)N(C)C2=O)cc1 (Somatostatin receptor type 4 (Homo sapiens, UniProt P31391))
Reply: > 1000 nM

--- query ---
Query: Give reported IC50 for CC(C)NCc1ccc(C[C@@H]2NC(=O)[C@@H](Cc3c[nH]c4ccccc34)NC(=O)[C@H](Cc3ccccc3)NC(=O)[C@H](Cc3ccccc3)NC(=O)[C@H](CCCCN)NC(=O)[C@@H](N)CSSC[C@@H](C(=O)O)N(C)C(=O)[C@H](CO)NC(=O)[C@H]([C@@H](C)O)NC(=O)[C@H](Cc3ccccc3)NC(=O)[C@H]([C@@H](C)O)NC2=O)cc1 (Somatostatin receptor type 4 (Homo sapiens, UniProt P31391))
Reply: > 1000 nM

---

Target: Somatostatin receptor type 3 (Homo sapiens)
Sequence (P32745 whole entry): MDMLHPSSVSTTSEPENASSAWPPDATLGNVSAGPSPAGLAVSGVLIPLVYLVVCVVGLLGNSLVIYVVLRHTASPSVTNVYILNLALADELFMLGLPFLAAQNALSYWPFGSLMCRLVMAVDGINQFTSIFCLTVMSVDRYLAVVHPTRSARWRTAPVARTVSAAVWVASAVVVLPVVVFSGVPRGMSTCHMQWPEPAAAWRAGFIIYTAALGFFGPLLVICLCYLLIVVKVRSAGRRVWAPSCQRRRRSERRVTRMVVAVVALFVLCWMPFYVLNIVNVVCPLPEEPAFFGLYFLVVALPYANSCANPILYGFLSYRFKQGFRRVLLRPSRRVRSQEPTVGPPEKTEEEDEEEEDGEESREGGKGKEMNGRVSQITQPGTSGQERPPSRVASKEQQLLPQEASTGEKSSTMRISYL
pIC50: −log10 of the molar value.
OBSERVABLE: pIC50

Query: Give reported pIC50 for CC(C)NCc1ccc(C[C@@H]2NC(=O)[C@@H](Cc3ccc4ccccc4c3)NC(=O)[C@H](Cc3ccccc3)NC(=O)[C@H](Cc3ccccc3)NC(=O)[C@H](CCCCN)NC(=O)[C@@H](N)CSSC[C@@H](C(=O)N[C@@H](CCCCN)C(=O)O)N(C)C(=O)[C@H](CO)NC(=O)[C@H]([C@@H](C)O)NC(=O)[C@H](Cc3ccccc3)NC(=O)[C@H]([C@@H](C)O)NC2=O)cc1 (Somatostatin receptor type 3 (Homo sapiens))
Reply: < 6.00

--- query ---
Query: Give reported pIC50 for CC(C)NCc1ccc(C[C@@H]2NC(=O)[C@@H](Cc3c[nH]c4ccccc34)NC(=O)[C@H](Cc3ccccc3)NC(=O)[C@H](Cc3ccccc3)NC(=O)[C@H](CCCCN)NC(=O)[C@@H](N)CSSC[C@@H](C(=O)O)N(C)C(=O)[C@H](CO)NC(=O)[C@H]([C@@H](C)O)NC(=O)[C@H](Cc3ccccc3)NC(=O)[C@H]([C@@H](C)O)NC2=O)cc1 (Somatostatin receptor type 3 (Homo sapiens))
Reply: < 6.00

---

Positions of bridges follow the written chain, without caps; N, C: chain ends. Non-standard residues stand in square brackets, D forms with d. Residues, ends and D or L forms follow the SMILES beside them. NMePhe(4-CH2NHiPr) = CN[C@@H](Cc1ccc(CNC(C)C)cc1)C(=O)O; Phe(4-CH2NHiPr) = CC(C)NCc1ccc(C[C@H](N)C(=O)O)cc1
IC50 data for Somatostatin receptor type 3 (Homo sapiens) follow.

These solved cases illustrate the format of a correct answer.
Query: Give reported IC50 for CC(C)NCc1ccc(C[C@@H]2NC(=O)[C@H](Cc3c[nH]c4ccccc34)NC(=O)[C@H](Cc3ccccc3)NC(=O)[C@H](Cc3ccccc3)NC(=O)[C@H](CCCCN)NC(=O)[C@@H](N)CSSC[C@@H](C(=O)O)NC(=O)[C@H](CO)NC(=O)[C@H]([C@@H](C)O)NC(=O)[C@H](Cc3ccc(O)cc3)NC(=O)[C@H]([C@@H](C)O)NC2=O)cc1 (H-CKFFW[Phe(4-CH2NHiPr)]TYTSC-OH; disulfide 1-11) (Somatostatin receptor type 3 (Homo sapiens))
Reply: > 1000 nM

Query: Give reported IC50 for CC(C)NCc1ccc(C[C@H]2C(=O)N[C@@H]([C@@H](C)O)C(=O)N[C@@H](Cc3ccccc3)C(=O)N[C@@H]([C@@H](C)O)C(=O)N[C@@H](CO)C(=O)N[C@H](C(=O)O)CSSC[C@H](N)C(=O)N[C@@H](CCCCN)C(=O)N[C@@H](Cc3ccccc3)C(=O)N[C@@H](Cc3ccccc3)C(=O)N[C@H](Cc3c[nH]c4ccccc34)C(=O)N2C)cc1 (H-CKFF[dW][NMePhe(4-CH2NHiPr)]TFTSC-OH; disulfide 1-11) (Somatostatin receptor type 3 (Homo sapiens))
Reply: 1030 nM

--- query ---
Query: Give reported IC50 for CC(C)NCc1ccc(C[C@@H]2NC(=O)[C@@H](Cc3c[nH]c4ccccc34)NC(=O)[C@H](Cc3ccccc3)NC(=O)[C@H](Cc3ccccc3)NC(=O)[C@H](CCCCN)NC(=O)[C@@H](N)CSSC[C@@H](C(=O)N[C@@H](CCCCN)C(=O)N[C@@H](CCCCN)C(=O)O)NC(=O)[C@H](CO)N(C)C(=O)[C@H]([C@@H](C)O)NC(=O)[C@H](Cc3ccccc3)NC(=O)[C@H]([C@@H](C)O)NC2=O)cc1 (Somatostatin receptor type 3 (Homo sapiens))
Reply: > 1000 nM

---

Target: Somatostatin receptor type 4 (Homo sapiens, UniProt P31391)
Sequence (P31391 whole entry): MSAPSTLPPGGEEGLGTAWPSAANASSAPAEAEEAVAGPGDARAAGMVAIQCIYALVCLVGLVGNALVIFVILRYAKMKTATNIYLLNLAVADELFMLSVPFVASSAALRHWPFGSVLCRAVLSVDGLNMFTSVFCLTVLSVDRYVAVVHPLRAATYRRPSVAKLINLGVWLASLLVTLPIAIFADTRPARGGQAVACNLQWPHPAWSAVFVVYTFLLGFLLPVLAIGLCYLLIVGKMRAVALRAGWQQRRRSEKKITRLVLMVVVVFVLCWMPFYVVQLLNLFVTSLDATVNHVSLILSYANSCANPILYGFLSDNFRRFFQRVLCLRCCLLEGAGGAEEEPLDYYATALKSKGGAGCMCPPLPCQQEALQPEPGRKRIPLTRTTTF
OBSERVABLE: pIC50
In textbook form, pIC50 equals minus log to base ten of the concentration in mol/L.

Query: Identify the reported pIC50 for the following entry. CC(C)NCc1ccc(C[C@@H]2NC(=O)[C@@H](Cc3ccc4ccccc4c3)NC(=O)[C@H](Cc3ccccc3)NC(=O)[C@H](Cc3ccccc3)NC(=O)[C@H](CCCCN)NC(=O)[C@@H](N)CSSC[C@@H](C(=O)O)NC(=O)[C@H](CO)NC(=O)[C@H]([C@@H](C)O)N(C)C(=O)[C@H](Cc3ccccc3)NC(=O)[C@H]([C@@H](C)O)NC2=O)cc1
Reply: 6.38
